Kindly state PKM2 E max for each of the entries shown.
Molecular target: PKM2 (Homo sapiens, UniProt P14618)
Sequence (P14618 whole entry): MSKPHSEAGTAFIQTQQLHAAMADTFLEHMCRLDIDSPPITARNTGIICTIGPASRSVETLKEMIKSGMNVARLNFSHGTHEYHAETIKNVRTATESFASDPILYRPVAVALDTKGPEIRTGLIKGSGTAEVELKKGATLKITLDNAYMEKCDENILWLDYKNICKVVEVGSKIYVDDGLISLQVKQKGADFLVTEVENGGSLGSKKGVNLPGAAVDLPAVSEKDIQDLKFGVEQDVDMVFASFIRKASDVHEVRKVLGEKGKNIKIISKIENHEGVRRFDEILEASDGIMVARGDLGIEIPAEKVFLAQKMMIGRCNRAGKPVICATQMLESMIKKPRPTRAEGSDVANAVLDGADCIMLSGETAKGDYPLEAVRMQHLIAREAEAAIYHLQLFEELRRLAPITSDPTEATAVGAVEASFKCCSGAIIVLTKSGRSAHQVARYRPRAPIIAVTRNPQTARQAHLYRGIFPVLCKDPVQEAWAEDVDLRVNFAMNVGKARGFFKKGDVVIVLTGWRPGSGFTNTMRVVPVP
Assay: Recombinant PKM2 activity assay (Kinase-Glo MAX)
Format: biochemical
Design: made in house
Details: recombinant PKM2

// worked examples, PKM2 E max included
> print(dat)
                                   compound             value
1  O=c1c2ccc(S(=O)(=O)c3ccccc3)cc2cnn1Cc1ccccc1 [Compound I, reference compound]  596 % of vehicle
2  CN(C)c1ccc(S(=O)(=O)c2ccc3c(=O)n(Cc4cc[nH]n4)ncc3c2)c2nonc12  449 % of vehicle
3  CN(C)c1ccc(S(=O)(=O)c2ccc3c(=O)n(Cc4ccccc4)ncc3c2)c2nonc12  572 % of vehicle

Read the next record carefully.
Incoming: Quick one: PKM2 E max for CN(C)c1ccc(S(=O)(=O)c2ccc3c(=O)n(CC(C)(C)C)ncc3c2)c2nonc12 ?
Outgoing: 323 % of vehicle
